tested-target: human beta2-adrenoceptor (Homo sapiens, UniProt P07550)
Construct: expressed in transfected cells; host or cells: CHO cells
Sequence (P07550 whole entry): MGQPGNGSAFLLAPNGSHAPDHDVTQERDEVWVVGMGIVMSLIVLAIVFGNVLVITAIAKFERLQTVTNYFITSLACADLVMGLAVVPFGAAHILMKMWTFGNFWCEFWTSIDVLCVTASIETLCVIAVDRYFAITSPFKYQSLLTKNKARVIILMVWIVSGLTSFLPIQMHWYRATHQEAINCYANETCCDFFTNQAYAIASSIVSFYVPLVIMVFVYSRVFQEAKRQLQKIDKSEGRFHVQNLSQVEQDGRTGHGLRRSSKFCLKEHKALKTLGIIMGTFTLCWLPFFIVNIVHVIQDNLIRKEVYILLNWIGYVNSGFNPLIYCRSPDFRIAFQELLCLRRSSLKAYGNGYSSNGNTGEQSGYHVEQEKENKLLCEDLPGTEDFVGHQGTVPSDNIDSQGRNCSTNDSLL
procedure-text: 3H-CGP12177 whole-cell binding, beta2
study-conditions: 3H-CGP 12177 whole cell binding, CHO cells expressing human beta2-adrenoceptor; logarithmic value; read-out: Beta 2 Log KD (converted)
Sorting guide: entries reporting Kd beneath 1000 nM go in the rule met pile, the rest go in the rule not met pile.

>  <structure-notation>
O=c1[nH]c2ccc(OCCNC[C@H](O)COc3ccc(CCCOCC4CC4)cc3)cc2[nH]1

>  <tested-target>
human beta2-adrenoceptor (Homo sapiens, UniProt P07550)

>  <class-assignment>
rule not met

$$$$
>  <structure-notation>
O[C@@H](CNCCOc1ccc2ncccc2c1)COc1ccc(CCCOCC2CC2)cc1

>  <tested-target>
human beta2-adrenoceptor (Homo sapiens, UniProt P07550)

>  <class-assignment>
rule met

$$$$
>  <structure-notation>
Cc1ccccc1OC[C@@H]1COc2cc(OC[C@@H](O)CNCCOc3ccc4c(c3)CNC4=O)ccc2O1

>  <tested-target>
human beta2-adrenoceptor (Homo sapiens, UniProt P07550)

>  <class-assignment>
rule met

$$$$
>  <structure-notation>
NC(=O)c1ccc(OCCNC[C@H](O)COc2ccc(CCCOC3CCCC3)cc2)cc1

>  <tested-target>
human beta2-adrenoceptor (Homo sapiens, UniProt P07550)

>  <class-assignment>
rule met

$$$$
>  <structure-notation>
O=C1NCc2cc(OCCNC[C@H](O)COc3ccc4cc(OCC5CC5)ccc4c3)ccc21

>  <tested-target>
human beta2-adrenoceptor (Homo sapiens, UniProt P07550)

>  <class-assignment>
rule not met

$$$$
>  <structure-notation>
CN(C)C(=O)c1ccc(OCCNC[C@H](O)COc2ccc(OCCOC3CCCC3)cc2)cc1

>  <tested-target>
human beta2-adrenoceptor (Homo sapiens, UniProt P07550)

>  <class-assignment>
rule not met

$$$$
>  <structure-notation>
CC(=O)Nc1ccc(OCCNC[C@H](O)COc2ccc3c(c2)OC[C@@H](COCC2CC2)O3)cc1

>  <tested-target>
human beta2-adrenoceptor (Homo sapiens, UniProt P07550)

>  <class-assignment>
rule not met

$$$$
>  <structure-notation>
O[C@@H](CNCCOc1ccc2ncccc2c1)COc1ccc2c(c1)OC[C@@H](COCC1CC1)O2

>  <tested-target>
human beta2-adrenoceptor (Homo sapiens, UniProt P07550)

>  <class-assignment>
rule not met

$$$$
>  <structure-notation>
COc1c(F)cc(OC[C@@H]2COc3cc(OC[C@@H](O)CNCCOc4ccc5c(c4)CNC5=O)ccc3O2)cc1F

>  <tested-target>
human beta2-adrenoceptor (Homo sapiens, UniProt P07550)

>  <class-assignment>
rule not met

$$$$
>  <structure-notation>
O=C1NCc2cc(OCCNC[C@H](O)COc3ccc(CCCN4CCC(F)(F)CC4)cc3)ccc21

>  <tested-target>
human beta2-adrenoceptor (Homo sapiens, UniProt P07550)

>  <class-assignment>
rule met

$$$$
>  <structure-notation>
O=C1NCc2cc(OCCNC[C@H](O)COc3ccc4c(c3)OC[C@@H](COc3ccc(F)cc3)O4)ccc21

>  <tested-target>
human beta2-adrenoceptor (Homo sapiens, UniProt P07550)

>  <class-assignment>
rule met

$$$$
>  <structure-notation>
NC(=O)c1ccc(OCCNC[C@H](O)COc2ccc(CCCOCC3CC3)cc2)cc1

>  <tested-target>
human beta2-adrenoceptor (Homo sapiens, UniProt P07550)

>  <class-assignment>
rule not met

$$$$
>  <structure-notation>
O=C1NCc2cc(OCCNC[C@H](O)COc3ccc4c(c3)OC[C@@H](COc3ccncc3)O4)ccc21

>  <tested-target>
human beta2-adrenoceptor (Homo sapiens, UniProt P07550)

>  <class-assignment>
rule not met

$$$$
>  <structure-notation>
O=C1NCc2cc(OCCNC[C@H](O)COc3ccc4c(c3)OC[C@@H](COc3ccc(OC(F)(F)F)cc3)O4)ccc21

>  <tested-target>
human beta2-adrenoceptor (Homo sapiens, UniProt P07550)

>  <class-assignment>
rule not met

$$$$
>  <structure-notation>
O[C@@H](CNCCOc1ccc2nccnc2c1)COc1ccc(CCCOCC2CC2)cc1

>  <tested-target>
human beta2-adrenoceptor (Homo sapiens, UniProt P07550)

>  <class-assignment>
rule met

$$$$
>  <structure-notation>
O=C1NCc2cc(OCCNC[C@H](O)COc3ccc4c(c3)OC[C@@H](CN3CCC(F)(F)CC3)O4)ccc21

>  <tested-target>
human beta2-adrenoceptor (Homo sapiens, UniProt P07550)

>  <class-assignment>
rule not met

$$$$
